Assay: Octanol-phosphate buffer partition coefficient, log P of the compound at pH 7.4 by HPLC analysis
Format: physicochemical
Measured logD of individual entries

Compound | logD
Cc1oc(=O)oc1COC(=O)C(C)(C)Oc1ccc(CCNC(=O)c2ccc(Cl)cc2)cc1 | 3.1
CC(C)(Oc1ccc(CCNC(=O)c2ccc(Cl)cc2)cc1)C(=O)O [BEZAFIBRATE] | 1.5
CC(=O)OC(C)OC(=O)C(C)(C)Oc1ccc(CCNC(=O)c2ccc(Cl)cc2)cc1 (stereo unspecified) | 4.5
CC(C)(C)C(=O)OCOC(=O)C(C)(C)Oc1ccc(CCNC(=O)c2ccc(Cl)cc2)cc1 | 5.1
CC(=O)OCCOC(=O)C(C)(C)Oc1ccc(CCNC(=O)c2ccc(Cl)cc2)cc1 | 3.8
CC(C)(Oc1ccc(CCNC(=O)c2ccc(Cl)cc2)cc1)C(=O)OCCN1CCOCC1 | 5.1
